Consider the following compounds; for each one, report its %Inh.
test system: MAST1; details: concentration: 1 μM, replicates: in singlicate; n = 1;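 note: KINOMEscan kinase panel screen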
Please respond with the number in % and leave the unit unwritten.

# `Fc1cc(Cl)ccc1Nc1ccnc2cc(-c3ccc(CN4CCCCC4)o3)ccc12` with MAST1: %Inh is 43

# `CCn1c(-c2ccccn2)nc2cnccc21` with MAST1: %Inh is 47

# COc1cc2ncn(-c3cc(OCC4CCCO4)c(C(N)=O)s3)c2cc1OC (stereo not shown) with MAST1: %Inh is 2

# `O=C(Nc1n[nH]c2nc(-c3nccs3)c(Br)cc12)C1CC1` with MAST1: %Inh is 20

# `COc1ccc2nc(-c3cccc(C)n3)nc(Nc3ccncc3)c2c1` with MAST1: %Inh is 0

# `COc1cc2ncnc(Nc3ccc4nc(-c5ccccc5)[nH]c4c3)c2cc1OC.Cl` with MAST1: %Inh is 0

# `C[C@@H]1CCCCN1c1cc(-c2ccc3c(N)n[nH]c3c2)nc(N)n1` with MAST1: %Inh is 0
